- target_of_assay: human cannabinoid CB2 receptor (Homo sapiens, UniProt P34972)
- Construct: expressed in transfected cells; host or cells: Saccharomyces cerevisiae strain MMY23 (Gpa1/Galphai3 chimeric G-protein alpha subunit)
- Sequence (P34972 whole entry): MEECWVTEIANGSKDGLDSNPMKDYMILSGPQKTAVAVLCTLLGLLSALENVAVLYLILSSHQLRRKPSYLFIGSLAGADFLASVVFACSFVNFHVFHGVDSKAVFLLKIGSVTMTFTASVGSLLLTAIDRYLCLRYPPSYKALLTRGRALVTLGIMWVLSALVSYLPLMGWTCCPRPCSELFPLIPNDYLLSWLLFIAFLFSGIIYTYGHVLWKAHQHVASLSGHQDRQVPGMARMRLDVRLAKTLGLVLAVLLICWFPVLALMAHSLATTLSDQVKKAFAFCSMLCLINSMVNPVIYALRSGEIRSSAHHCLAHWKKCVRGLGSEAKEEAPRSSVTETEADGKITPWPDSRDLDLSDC
- protocol_notes: Cannabinoid CB2 receptor agonist activity in yeast cells expressing the receptor (FDGlu fluorescence)
- Type: cell-based
- condition_context: yeast assay; read-out: EC50 at the cloned human cannabinoid CB2 receptor
Structures can show the parent of a compound that is named as a salt.
measured_endpoint: EC50

Return reported EC50; argument: Cc1cc(F)ccc1Nc1ncc(C(=O)N2CCOCC2)c2c1ccn2C [Example 183, hydrochloride]
300 to 1000 nM

====

Give Emax for every item shown.
- target_of_assay: human cannabinoid CB1 receptor (Homo sapiens)
- Construct: expressed in transfected cells; host or cells: Saccharomyces cerevisiae strain MMY23 (Gpa1/Galphai3 chimeric G-protein alpha subunit)
- Sequence (P21554 whole entry): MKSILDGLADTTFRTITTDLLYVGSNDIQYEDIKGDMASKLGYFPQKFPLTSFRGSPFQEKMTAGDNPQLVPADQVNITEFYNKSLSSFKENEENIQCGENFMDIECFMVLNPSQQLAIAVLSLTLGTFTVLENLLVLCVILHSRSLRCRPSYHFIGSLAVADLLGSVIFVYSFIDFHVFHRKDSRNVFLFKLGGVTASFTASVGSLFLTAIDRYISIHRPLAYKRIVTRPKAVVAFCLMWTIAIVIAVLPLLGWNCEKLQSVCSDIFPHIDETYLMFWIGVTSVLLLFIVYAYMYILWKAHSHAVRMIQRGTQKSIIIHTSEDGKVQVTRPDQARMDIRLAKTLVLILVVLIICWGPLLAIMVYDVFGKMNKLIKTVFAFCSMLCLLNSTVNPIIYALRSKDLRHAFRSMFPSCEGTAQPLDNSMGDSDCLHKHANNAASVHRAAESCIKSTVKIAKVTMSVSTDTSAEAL
- protocol_notes: Cannabinoid CB1 receptor agonist activity in yeast cells expressing the receptor (FDGlu fluorescence)
- Format: cell-based
- condition_context: yeast assay; relative to HU210; individual values of the exceptions; read-out: efficacy (Emax) at the cloned human cannabinoid CB1 receptor
Counter-ions that a name gives are not always drawn.
Report as: number unit

Return reported Emax; argument: Cn1ccc2c(Nc3cc(Cl)cc(Cl)c3)ncc(C(=O)N3CCOCC3)c21 [Example 124, hydrochloride]
75%

Return reported Emax; argument: Cn1ccc2c(Nc3ccc(C#N)c(Cl)c3)ncc(C(=O)N3CCOCC3)c21 [Example 130, hydrochloride]
30%

Return reported Emax; argument: Cn1ccc2c(Nc3cccc(Cl)c3)ncc(C(=O)N3CCSCC3)c21 [Example 237]
92%

Return reported Emax; argument: Cn1ccc2c(Nc3ccc(C#N)c(Br)c3)ncc(C(=O)N3CCOCC3)c21 [Example 162, hydrochloride]
33%
